Assay: Hydrophobicity investigation of free payloads by UPLC (hydrophobicity model)
Type: physicochemical
Conditions: Average of runs, D only in seco form, the others observable as single species
PROPERTY: Retention Time (min) seco form, Average

[
  {
    "COMPOUND": "CCc1c2c(nc3ccc(O)cc13)-c1cc3c(c(=O)n1C2)COC(=O)[C@]3(O)CC [SN38, reference compound]",
    "UNIT OF MEASUREMENT": "min",
    "RECORDED MEASUREMENT": 7.13
  },
  {
    "COMPOUND": "COc1cc2c(cc1OCCCCCOc1cc3c(cc1OC)C(=O)N1C=C(C)C[C@H]1C=N3)C=C[C@@H]1CC(C)=CN1C2=O [SG3199, reference compound]",
    "UNIT OF MEASUREMENT": "min",
    "RECORDED MEASUREMENT": 12.02
  },
  {
    "COMPOUND": "CC[C@H](C)C[C@H](OC)[C@@H](C(=O)N1CCC[C@H]1[C@@H](CC(=O)N[C@H](C)[C@@H](O)c1ccccc1)OC)N(C)C(=O)[C@@H](NC(=O)[C@@H](NC)C(C)C)C(C)C [MMAE, reference compound]",
    "UNIT OF MEASUREMENT": "min",
    "RECORDED MEASUREMENT": 12.04
  }
]

* * *

System: JVM2 (Lymphoma)
Assay: MTT in vitro cytotoxicity, 72 hour incubation
Assay type: cell-based
Conditions: Homo sapiens, JVM-2, MTT assay, JVM2 cells
Mark 1 (yes) for IC50 under 0.01 nM, 0 (no) if at or over.

[
  {
    "CPD SMILES": "CNS(=O)(=O)c1ccc(C2=CCN3C(=O)c4cc(OC)c(OC[C@@H](O)CC(=O)N5C[C@@H](CCl)c6c5cc(O)c5ccccc65)cc4N=C[C@@H]3C2)cc1",
    "ASSIGNED CATEGORY": "0 (no)"
  },
  {
    "CPD SMILES": "CNS(=O)(=O)c1ccc(C2=CCN3C(=O)c4cc(OC)c(OCCCCCC(=O)N5C[C@@H](CCl)c6c5cc(O)c5ccccc65)cc4N=C[C@@H]3C2)cc1",
    "ASSIGNED CATEGORY": "1 (yes)"
  },
  {
    "CPD SMILES": "COc1cc2c(cc1OC[C@@H](O)CC(=O)N1C[C@@H](CCl)c3c1cc(O)c1ccccc31)N=C[C@@H]1CC(c3ccsc3)=CCN1C2=O",
    "ASSIGNED CATEGORY": "1 (yes)"
  },
  {
    "CPD SMILES": "COc1cc2c(cc1OCCCC(=O)N1C[C@@H](CCl)c3c1cc(O)c1ccccc31)N=C[C@@H]1CC(c3ccsc3)=CCN1C2=O",
    "ASSIGNED CATEGORY": "1 (yes)"
  },
  {
    "CPD SMILES": "CNS(=O)(=O)c1ccc(C2=CCN3C(=O)c4cc(OC)c(OC[C@H](O)CC(=O)N5C[C@@H](CCl)c6c5cc(O)c5ccccc65)cc4N=C[C@@H]3C2)cc1",
    "ASSIGNED CATEGORY": "0 (no)"
  },
  {
    "CPD SMILES": "CNS(=O)(=O)c1ccc(C2=CCN3C(=O)c4cc(OC)c(OCCOCCC(=O)N5C[C@@H](CCl)c6c5cc(O)c5ccccc65)cc4N=C[C@@H]3C2)cc1",
    "ASSIGNED CATEGORY": "0 (no)"
  },
  {
    "CPD SMILES": "COc1cc2c(cc1OCCOCCC(=O)N1C[C@@H](CCl)c3c1cc(O)c1ccccc31)N=C[C@@H]1CC(c3ccsc3)=CCN1C2=O",
    "ASSIGNED CATEGORY": "1 (yes)"
  }
]

Reference source: patent US20220098191A1
